Tested on: Ovarian (A2780)
Assay: Cancer cell proliferation assay (acid phosphatase)
Type: cell-based
Conditions: Homo sapiens, Table 6E
Would you mind telling me the reported IC50 of each entry?
Numbers only, in nM.

[
  {
    "chemical_smiles": "Cc1ccccc1C(=O)Nc1nc(NC(=O)c2ccccc2C)n(-c2ccc(OC(F)(F)F)cc2)n1",
    "IC50 / nM": 84
  }
]

Then there is this compound:
Lab note: record IC50 of Cc1ccccc1C(=O)Nc1nc(NC(=O)c2ccccc2C)n(-c2ccccc2)n1 tested on Ovarian (A2780).
1300

###

Tested on: Ovarian (ES-2)
Assay: Cancer cell proliferation assay (acid phosphatase)
Type: cell-based
Conditions: Table 6D, another set of cell proliferation assay
result_type: EC50 (nM)
Answers are plain numbers, in nM.

Check the records and state EC50 for Cc1ccccc1C(=O)Nc1nc(NC(=O)c2ccccc2C)n(-c2ccc(OC(F)(F)F)cc2)n1
42

###

Tested on: TOV-21G (ovarian)
Assay: Cancer cell proliferation assay (acid phosphatase)
Format: cell-based
Conditions: Homo sapiens, TOV21G; Table 6E; read-out: Proliferation IC50 (nM) Ovarian TOV21G
result_type: IC50 (nM)
Answers are plain numbers, in nM.

[
  {
    "chemical_smiles": "Cc1ccccc1C(=O)Nc1nc(NC(=O)c2ccccc2C)n(-c2ccc(OC(F)(F)F)cc2)n1",
    "unit_symbol": "nM",
    "IC50": 109
  }
]

Okay, next one:
Return IC50 for the following compound: Cc1ccccc1C(=O)Nc1nc(NC(=O)c2ccccc2C)n(-c2ccccc2)n1
1500

###

Experiment: Microsomal stability assay, rat liver microsomes
Type: in vitro ADME
Conditions: pH 7.4; rat liver microsomes 1.0 mg/mL, 1 μM compound, NADPH; read-out: RLM t1/2
result_type: half-life at 1 μM (h)
Numbers only, in h.

[
  {
    "chemical_smiles": "Cc1ccccc1C(=O)Nc1nc(NC(=O)c2cccnn2)n(-c2ccccc2)n1",
    "result_type": "half-life at 1 μM",
    "unit_symbol": "h",
    "result_number": 0.85
  },
  {
    "chemical_smiles": "Cc1ccccc1C(=O)Nc1nc(-c2ccccc2O)nn1-c1ccc(C(F)(F)F)cc1",
    "result_type": "half-life at 1 μM",
    "unit_symbol": "h",
    "result_number": 0.395
  }
]

Give measured half-life at 1 μM for every item shown.
1. Cc1ccccc1C(=O)Nc1nc(-c2cc(Cl)ccc2O)nn1-c1ccc(OC(F)(F)F)cc1
2. Cc1ccccc1C(=O)Nc1nc(NCc2ccccc2)nn1-c1ccc(C(F)(F)F)cc1
3. Cc1ccccc1C(=O)Nc1nc(-c2cccc(F)n2)nn1-c1ccccc1

[2.82, 0.167, 1.4]

Batch of 5 compounds: report half-life at 1 μM for each.
1. COc1ccccc1C(=O)Nc1nc(NC(=O)c2ccccc2OC)n(-c2ccccc2)n1
2. Cc1ccccc1C(=O)Nc1nc(-c2ccccc2O)nn1-c1cccc(F)c1
3. Cc1ccccc1C(=O)Nc1nc(-c2ccccc2O)nn1-c1ccc(OC(F)(F)F)cc1
4. Cc1cccc(-n2nc(NC(=O)c3ccccc3C)nc2NC(=O)c2ccccc2C)c1
5. C#Cc1cccc(C(=O)Nc2nc(NC(=O)c3ccc(N=[N+]=[N-])cc3)nn2-c2ccccc2)c1

1. 0.35
2. 0.275
3. 1.22
4. 0.433
5. 2.1

Give me half-life at 1 μM for each of these compounds, listed below.
1. C#Cc1ccccc1C(=O)Nc1nc(NC(=O)c2cccc(N=[N+]=[N-])c2)n(-c2ccccc2)n1
2. Cc1ccccc1C(=O)Nc1nc(NC(=O)c2ccccc2C)n(-c2ccc(C#N)cc2)n1
3. Cc1ccccc1C(=O)Nc1nc(NC(=O)c2cnccn2)n(-c2ccccc2)n1
4. Cc1ccccc1C(=O)Nc1nc(NC(=O)c2ccncc2)nn1-c1ccccc1

1.18
3.3
0.433
5.5

Give one value of half-life at 1 μM per listed compound.
1. C#Cc1ccc(C(=O)Nc2nc(NC(=O)c3cccc(N=[N+]=[N-])c3)n(-c3ccccc3)n2)cc1
2. C#Cc1cccc(C(=O)Nc2nc(NC(=O)c3cccc(N=[N+]=[N-])c3)n(-c3ccccc3)n2)c1
3. Cc1ccccc1C(=O)Nc1nc(NC(=O)c2ccccc2C)n(-c2ccc(F)cc2F)n1

0.683
2.45
1.62

###

Assay: Oral bioavailability (PO) and pharmacokinetics assay
Format: in vivo, mice
Settings: male, Sprague-Dawley, plasma; mouse, PO (10 mg/kg)
result_type: AUC(0-t) (ng·h/mL)
Numbers only, in ng·h/mL.

Give the reported AUC(0-t) for this compound. Cc1ccccc1C(=O)Nc1nc(NC(=O)c2ccccc2C)n(-c2ccc(OC(F)(F)F)cc2)n1 [Compound 42]
18400

###

Would you mind telling me the reported half-life at 1 μM of each entry?
Test: Microsomal stability assay, rat liver microsomes
Type: in vitro ADME
Conditions: pH 7.4; rat liver microsomes 1.0 mg/mL, 1 μM compound, NADPH; read-out: RLM t1/2
Numbers only, in min.

In the examples that follow, each entry is paired with its recorded half-life at 1 μM.
[
  {
    "molecule": "Cc1ccccc1C(=O)Nc1nc(NC(=O)c2cccnc2)nn1-c1ccccc1 [Compound 6]",
    "half-life at 1 μM [min]": 5
  },
  {
    "molecule": "COc1ccccc1-c1nc(NC(=O)c2ccccc2C)n(-c2ccc(OC(F)(F)F)cc2)n1 [Compound 154]",
    "half-life at 1 μM [min]": 102
  },
  {
    "molecule": "Cc1ccc(O)c(-c2nc(NC(=O)c3ccccc3C)n(-c3ccc(OC(F)(F)F)cc3)n2)c1 [Compound 159]",
    "half-life at 1 μM [min]": 158
  },
  {
    "molecule": "O=C(Nc1nc(NC(=O)c2ccncc2)n(-c2ccccc2)n1)c1ccncc1 [Compound 33]",
    "half-life at 1 μM [min]": 198
  },
  {
    "molecule": "Cc1ccccc1C(=O)Nc1nc(NC(=O)c2ccccc2C)n(-c2ccc(C(F)(F)F)cc2)n1 [Compound 25]",
    "half-life at 1 μM [min]": 408
  },
  {
    "molecule": "Cc1ccccc1C(=O)Nc1nc(NC(=O)c2ccccc2C)n(-c2ccccc2Cl)n1 [Compound 26]",
    "half-life at 1 μM [min]": 58
  },
  {
    "molecule": "Cc1ccccc1C(=O)Nc1nc(NC(=O)C2CCCN2)nn1-c1ccccc1 (centres unmarked) [Compound 20]",
    "half-life at 1 μM [min]": 147
  },
  {
    "molecule": "Cc1ccccc1C(=O)Nc1nc(NC(=O)c2ncco2)n(-c2ccccc2)n1 [Compound 10]",
    "half-life at 1 μM [min]": 27
  },
  {
    "molecule": "O=C(Nc1nc(NC(=O)c2ccccn2)n(-c2ccccc2)n1)c1ccccn1 [Compound 41]",
    "half-life at 1 μM [min]": 17
  },
  {
    "molecule": "Cc1ccccc1C(=O)Nc1nc(NC(=O)c2ccccc2C)n(-c2cccc(F)c2)n1 [Compound 39]",
    "half-life at 1 μM [min]": 133
  }
]

// input: 4 molecules below; output: half-life at 1 μM for each
1. Cc1ccccc1C(=O)Nc1nc(NC(=O)c2ccccc2C)n(-c2ccc(N3CCCCC3)cc2)n1 [Compound 44]
2. C#Cc1cccc(C(=O)Nc2nc(NC(=O)c3cccc(N=[N+]=[N-])c3)nn2-c2ccccc2)c1 [Compound 29]
3. Cc1ccccc1C(=O)Nc1nc(NC(=O)C2CCN2)nn1-c1ccccc1 (centres unmarked) [Compound 5]
4. Cc1ccccc1C(=O)Nc1nc(NC(=O)c2ccccc2C)n(-c2cccc(Cl)c2)n1 [Compound 36]

1: 6; 2: 47; 3: 131; 4: 63

Count: 3. Required value per item: half-life at 1 μM.
1. Cc1ccc(C(=O)Nc2nc(NC(=O)c3ccc(C)cc3)n(-c3ccccc3)n2)cc1 [Compound 21]
2. Cc1ccccc1C(=O)Nc1nc(NC(=O)c2ncccn2)n(-c2ccccc2)n1 [Compound 28]
3. Cc1ccccc1C(=O)Nc1nc(NC(=O)c2ccccc2C)n(-c2ccc(F)c(F)c2)n1 [Compound 24]

1. 6
2. 20
3. 131

###

Target: UniProt O60260
Sequence (O60260 whole entry): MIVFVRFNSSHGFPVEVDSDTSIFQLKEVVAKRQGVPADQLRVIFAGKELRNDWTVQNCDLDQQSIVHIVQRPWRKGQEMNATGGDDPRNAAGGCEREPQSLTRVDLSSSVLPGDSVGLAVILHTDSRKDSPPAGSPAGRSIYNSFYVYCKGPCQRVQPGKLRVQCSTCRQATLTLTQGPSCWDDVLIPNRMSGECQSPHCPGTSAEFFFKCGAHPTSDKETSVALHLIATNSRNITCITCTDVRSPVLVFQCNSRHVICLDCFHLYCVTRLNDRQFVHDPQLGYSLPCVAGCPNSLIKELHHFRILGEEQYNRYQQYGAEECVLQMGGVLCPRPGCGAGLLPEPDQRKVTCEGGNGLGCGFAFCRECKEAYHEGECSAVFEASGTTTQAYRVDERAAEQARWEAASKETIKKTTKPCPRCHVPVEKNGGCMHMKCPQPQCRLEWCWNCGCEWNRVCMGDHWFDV
Test: Activity-Based Probe Assay using Ubiquitin vinyl sulfone probe (TR-FRET)
Assay type: biochemical
Conditions: heat activated Parkin, HA-Ub-VS probe, activation EC50; read-out: Probe Assay EC50 (μM) [Example 2]
Description: An Ubiquitin vinyl sulfone probe can be used that irreversibly binds to the active site cysteine of Parkin ligase. Covalent attachment of the probe to the Parkin can be monitored by TR-FRET. […] 12) Read plates on Perkin Elmer Envision instrument with the following parameters: […] Read 655 nm (channel 1) and 615 nm (channel 2) wavelengths on Envision® Data Analysis: The Data can be read in CSV files. […]
result_type: EC50 (µM)
One number for each entry, in µM.

Solved cases below.
[
  {
    "compound": "Cc1ccccc1C(=O)Nc1nc(N[C@@H](C)c2ccccc2)nn1-c1ccc(C(F)(F)F)cc1 [Compound 120]",
    "study_system": "UniProt O60260",
    "unit_symbol": "µM",
    "EC50": 1
  },
  {
    "compound": "Cc1ccccc1C(=O)Nc1nc(NC(=O)c2ccccc2C)n(-c2ccc(N3CCN(C(=O)OC(C)(C)C)CC3)cc2)n1 [Compound 59]",
    "study_system": "UniProt O60260",
    "unit_symbol": "µM",
    "EC50": 3
  },
  {
    "compound": "Cc1ccccc1C(=O)Nc1nc(NC(=O)c2ccccc2C)n(-c2ccc(N3CCCCC3)cc2)n1 [Compound 44]",
    "study_system": "UniProt O60260",
    "unit_symbol": "µM",
    "EC50": 3
  }
]

Now examine the next entry.
Tell me its EC50 on UniProt O60260: Cc1ccccc1C(=O)Nc1nc(NC(=O)c2cccnn2)n(-c2ccccc2)n1 [Compound 13]
7
